tested on: MDA-MB-231; assay: Antiproliferative activity against human MDA-MB-231 cells assessed as reduction in cell growth after 72 hrs by MTT assay; assay type: functional, cell-based; conditions: MDA-MB-231, 72 h
Property Measured: IC50 (nM)

Mol Smiles: C=C1C(=O)[C@@]23C(=O)OC[C@]4(C=CCC(C)(C)[C@H]4C=O)[C@@H]2CC[C@@H]1[C@H]3O
Study Target: MDA-MB-231
Readout Unit: nM
IC50: 2860

[I] C=C1C(=O)[C@@]23C(=O)OC[C@]4(C=CCC(C)(C)[C@H]4C=O)[C@@H]2CC[C@@H]1[C@H]3OC(=O)/C=C/c1cncnc1
[II] C=C1C(=O)[C@@]23C(=O)OC[C@]4(C=CCC(C)(C)[C@H]4C=O)[C@@H]2CC[C@@H]1[C@H]3OC(=O)/C=C/c1ccccc1
# query: argmin of IC50 over I and II Kindly give the label for the entry you pick.
I

[I] C=C1C(=O)[C@@]23C(=O)OC[C@]4(C=CCC(C)(C)[C@H]4C=O)[C@@H]2CC[C@@H]1[C@H]3OC(=O)/C=C/c1ccsc1
[II] C=C1C(=O)[C@@]23C(=O)O[C@H]4CCC(C)(C)[C@H]5C(=O)OC[C@]45[C@H]2CC[C@@H]1[C@H]3OC(=O)/C=C/c1ccncc1F
# query: argmin of IC50 over I and II Kindly give the label for the entry you pick.
II
(II: 870 nM, I: 3760 nM)
